B1: TPR 5TU (parent)
chain: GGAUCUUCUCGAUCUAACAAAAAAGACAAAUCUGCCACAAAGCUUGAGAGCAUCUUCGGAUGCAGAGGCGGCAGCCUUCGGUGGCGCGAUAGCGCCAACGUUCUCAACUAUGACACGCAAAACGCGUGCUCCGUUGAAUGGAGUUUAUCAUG

Variants of: B1
Assay: polymerase ribozyme fitness, log enrichment relative to wild type (log ratio); higher = more active; in vitro selection for triplet polymerase activity
This sample holds only a part of the variants without activity.
Listed variants paired with reported polymerase ribozyme fitness (log ratio)
// print number alone

{"Variant": "C18G C93U A98G A120C G141U", "polymerase ribozyme fitness (log ratio)": 0.17}

I'd like to know its polymerase ribozyme fitness (log ratio). The variant in question is C57U C116G 0.474

I'd like to know its polymerase ribozyme fitness (log ratio). The variant in question is A60C C76U -3.17

I'd like to know its polymerase ribozyme fitness (log ratio). The variant in question is A12G A41U C85U U101G C105A G140U G152U -4.09

I'd like to know its polymerase ribozyme fitness (log ratio). The variant in question is A41C C54A U82G G94U -3.5

I'd like to know its polymerase ribozyme fitness (log ratio). The variant in question is A12G C14G G92C -2.86

I'd like to know its polymerase ribozyme fitness (log ratio). The variant in question is "G141C" -0.0848

I'd like to know its polymerase ribozyme fitness (log ratio). The variant in question is U13A A16C A91G -2.83

I'd like to know its polymerase ribozyme fitness (log ratio). The variant in question is A89U C103U A106C G117A -2.14

I'd like to know its polymerase ribozyme fitness (log ratio). The variant in question is "U6G" 0.0167

I'd like to know its polymerase ribozyme fitness (log ratio). The variant in question is C18U A22G A49C G86A C131G -4.14

I'd like to know its polymerase ribozyme fitness (log ratio). The variant in question is U15G C99U A142U -1.77
